# target-or-test-system: Neu5Ac(a2-3)Gal(b1-3)[Fuc(a1-4)]GlcNAc
# protocol-description: glycan array binding signal (z-score within array); higher = stronger binding
# measurement-setup: glycan notation: IUPAC condensed, linker removed
Many of the other results were omitted from the sample, so the strongest signals are more common in it than they were.
Tag: YES if measured glycan array binding signal (z-score) is not below -0.2, NO if it is.

Gal 2 (Homo sapiens), P05162 (protein) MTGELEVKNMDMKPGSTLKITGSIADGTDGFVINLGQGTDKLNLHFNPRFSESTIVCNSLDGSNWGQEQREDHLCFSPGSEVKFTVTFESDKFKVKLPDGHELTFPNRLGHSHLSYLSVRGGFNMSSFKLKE ... NO
CC1G-11630 (Coprinopsis cinerea), A8P462 (protein) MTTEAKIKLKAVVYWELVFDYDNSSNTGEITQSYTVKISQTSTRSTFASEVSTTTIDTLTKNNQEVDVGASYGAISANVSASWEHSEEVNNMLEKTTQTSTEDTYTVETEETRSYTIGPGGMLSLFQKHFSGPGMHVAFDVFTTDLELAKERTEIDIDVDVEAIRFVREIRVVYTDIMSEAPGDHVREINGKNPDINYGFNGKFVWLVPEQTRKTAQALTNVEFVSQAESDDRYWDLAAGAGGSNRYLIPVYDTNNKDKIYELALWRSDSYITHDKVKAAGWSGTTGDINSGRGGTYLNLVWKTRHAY ... YES
UEA-I (Ulex europaeus), P22972 (protein) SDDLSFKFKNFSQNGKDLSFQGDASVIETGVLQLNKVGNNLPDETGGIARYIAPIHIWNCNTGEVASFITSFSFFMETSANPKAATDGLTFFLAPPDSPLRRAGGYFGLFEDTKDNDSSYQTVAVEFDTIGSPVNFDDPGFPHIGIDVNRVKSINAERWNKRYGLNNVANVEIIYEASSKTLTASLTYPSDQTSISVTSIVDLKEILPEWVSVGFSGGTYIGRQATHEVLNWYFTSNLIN ... YES
CLL-1 (Homo sapiens) (protein) MWIDFFTYSSMSEEVTYADLQFQNSSEMEKIPEIGKFGEKAPPAPSHVWRPAALFLTLLCLLLLIGLGVLASMFHVTLKIEMKKMNKLQNISEELQRNISLQLMSNMNISNKIRNLSTTLQTIATKLCRELYSKEQEHKCKPCPRRWIWHKDSCYFLSDDVQTWQESKMACAAQNASLLKINNKNALEFIKSQSRSYDYWLGLSPEEDSTRGMRVDNIINSSAWVIRNAPDLNNMYCGYINRLYVQYYHCTYKKRMICEKMANPVQLGSTYFREA ... YES

We next turn to a different binder, shown below.
## Input Textbook exercise: given the entry MXA PilAct-eGFP (Myxococcus xanthus), Q59589 (protein) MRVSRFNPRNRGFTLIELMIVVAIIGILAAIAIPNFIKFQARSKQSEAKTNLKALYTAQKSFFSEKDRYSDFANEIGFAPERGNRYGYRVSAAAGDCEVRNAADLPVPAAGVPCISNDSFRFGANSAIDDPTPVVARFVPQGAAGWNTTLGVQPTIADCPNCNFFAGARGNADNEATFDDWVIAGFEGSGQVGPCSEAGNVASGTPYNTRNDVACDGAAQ , state whether its glycan array binding signal (z-score) is greater than or equal to -0.2.
## Output NO

Where these numbers come from: the supplement of paper PMC8728848
